Data origin, for the record: paper PMC8470973

Each entry below carries its measured IC50, system: AChE from Electrophorus electricus (type VI-S) (Electrophorus electricus).
Sequence (O42275 24-633): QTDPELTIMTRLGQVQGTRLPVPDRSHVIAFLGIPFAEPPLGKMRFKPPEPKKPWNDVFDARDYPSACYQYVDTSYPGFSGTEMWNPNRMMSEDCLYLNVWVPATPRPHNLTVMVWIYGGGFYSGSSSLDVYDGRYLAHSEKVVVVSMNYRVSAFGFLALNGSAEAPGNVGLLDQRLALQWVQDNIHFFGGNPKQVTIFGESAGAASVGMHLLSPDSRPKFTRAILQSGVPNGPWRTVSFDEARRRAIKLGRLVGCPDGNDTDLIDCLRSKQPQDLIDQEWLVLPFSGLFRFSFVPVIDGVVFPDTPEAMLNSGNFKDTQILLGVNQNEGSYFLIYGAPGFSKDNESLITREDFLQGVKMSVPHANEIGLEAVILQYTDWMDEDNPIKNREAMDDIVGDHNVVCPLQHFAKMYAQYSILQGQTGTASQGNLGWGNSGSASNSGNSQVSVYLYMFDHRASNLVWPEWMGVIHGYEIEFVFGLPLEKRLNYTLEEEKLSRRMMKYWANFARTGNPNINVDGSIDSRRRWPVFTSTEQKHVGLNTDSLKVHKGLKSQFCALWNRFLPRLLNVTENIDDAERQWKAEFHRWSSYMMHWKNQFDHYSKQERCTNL
Measured Endpoint: IC50 (µM)

>  <Compound Structure>
CC(C)=CCc1c2c(c3[nH]c4c(O)cccc4c(=O)c3c1O)C=CC(C)(C)O2

>  <Observed>
60.8

$$$$
>  <Compound Structure>
CC(C)=CCc1c2c(c(O)c3c(=O)c4cccc(O)c4n(C)c13)C=CC(C)(C)O2

>  <Observed>
66.6

$$$$
>  <Compound Structure>
COc1c(O)cc2c(c1O)c(=O)c1cccc(O)c1n2C

>  <Observed>
18.6

$$$$
>  <Compound Structure>
COc1c(O)c(OC)c2c(c1O)c(=O)c1cccc(O)c1n2C

>  <Observed>
47

$$$$
>  <Compound Structure>
COc1cc(O)c2c(=O)c3cccc(O)c3n(C)c2c1OC

>  <Observed>
35.4

$$$$
>  <Compound Structure>
CC(C)=CCc1c2c(c3c(c1O)c(=O)c1cccc(O)c1n3C)C=CC(C)(C)O2

>  <Observed>
54

$$$$
>  <Compound Structure>
COc1c(O)cc(O)c2c(=O)c3cccc(O)c3n(C)c12

>  <Observed>
42.6

$$$$
